B1: library; numbered along this chain (parent)
chain: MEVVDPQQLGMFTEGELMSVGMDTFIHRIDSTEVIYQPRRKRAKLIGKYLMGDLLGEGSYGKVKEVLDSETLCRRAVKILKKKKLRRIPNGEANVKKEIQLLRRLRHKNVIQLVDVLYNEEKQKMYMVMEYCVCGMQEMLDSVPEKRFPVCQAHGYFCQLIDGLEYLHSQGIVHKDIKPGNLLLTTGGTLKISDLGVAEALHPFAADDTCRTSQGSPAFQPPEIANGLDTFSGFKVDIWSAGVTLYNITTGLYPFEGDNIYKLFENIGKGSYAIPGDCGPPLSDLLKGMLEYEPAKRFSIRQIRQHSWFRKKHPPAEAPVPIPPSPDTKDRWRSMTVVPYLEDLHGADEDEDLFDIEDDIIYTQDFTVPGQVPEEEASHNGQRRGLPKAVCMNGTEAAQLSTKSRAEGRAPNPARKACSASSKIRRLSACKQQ

# Variants of: B1
# protocol description: STK11 functional score (HeLa growth suppression), rescaled enrichment; synonymous median = 1, nonsense median = 0 (normalised score)
# test context: with HeLa; variant type: missense
Answer 0.0 if STK11 functional score is under 1, and 1.0 if it is 1 or more.

Problem: Test whether the variant E57G records STK11 functional score of 1 or higher.
Result: 1.0

Problem: Test whether the variant I224M records STK11 functional score of 1 or higher.
Result: 1.0

Problem: Test whether the variant W308C records STK11 functional score of 1 or higher.
Result: 0.0

Problem: Test whether the variant Y118C records STK11 functional score of 1 or higher.
Result: 0.0

Problem: Test whether the variant P339C records STK11 functional score of 1 or higher.
Result: 1.0

Problem: Test whether the variant E223R records STK11 functional score of 1 or higher.
Result: 0.0

Problem: Test whether the variant E342F records STK11 functional score of 1 or higher.
Result: 1.0

Problem: Test whether the variant D207H records STK11 functional score of 1 or higher.
Result: 1.0

Problem: Test whether the variant R426T records STK11 functional score of 1 or higher.
Result: 1.0

Problem: Test whether the variant N181H records STK11 functional score of 1 or higher.
Result: 0.0

Problem: Test whether the variant M392Y records STK11 functional score of 1 or higher.
Result: 1.0
